Test system: HEK-293T
assay.method.text: Incucyte cell viability with HEK293T; also: unitless GR value; below 1 slowed growth and below 0 cell loss
Format: toxicity, cell-based
assay.conditions: human, 24 h, 10 µM, compound concentration 10 uM, replicate number 2
Please provide measured Growth Rate for the entries that follow.
Give the figure only, with no unit attached.

Q: Name the reported Growth Rate value associated with the molecule CC(C)C(=O)N[C@@H]1CCN(C(=O)Nc2nc3c(s2)-c2nc(-c4ccccc4Cl)ncc2CC3)C1
Ans: 0.15

Q: # repeat for N#Cc1ccnc(Nc2cc(C3CCN(C4COC4)CC3)cc(N3CCC(F)(F)C3)n2)c1
Ans: -0.26

Q: # repeat for Cn1cc(-c2ccc(-c3cncc(Cl)c3N3CCC4(CCNC4=O)CC3)cc2)cn1
Ans: 0.67

Q: # repeat for CC1(C)C(=O)N([C@H]2CCc3c(O)cccc32)c2nc(Nc3cccc(CN4CCCC4)c3)ncc21
Ans: -0.32

Q: # repeat for CC(=O)O[C@H]1C(=O)[C@@]2(C)[C@H]([C@H](OC(=O)c3ccccc3)[C@]3(O)C[C@H](OC(=O)[C@H](O)[C@@H](NC(=O)c4ccccc4)c4ccccc4)C(C)=C1C3(C)C)[C@]1(OC(C)=O)CO[C@@H]1C[C@@H]2O [PACLITAXEL]
Ans: -0.02

Q: # repeat for COc1cc(-c2cncc(-c3cnn(C4CCNCC4)c3)c2)cc(OC)c1OC
Ans: 0.77

Q: # repeat for C[C@@H](COCCC(=O)N1CCN(c2ncc(C(F)(F)F)cn2)CC1)Nc1cn[nH]c(=O)c1C(F)(F)F [ATAMPARIB]
Ans: 0.75

----------
Test system: Fibroblast
assay.method.text: Incucyte cell viability with human fibroblast; also: unitless GR value; below 1 slowed growth and below 0 cell loss
Type: toxicity, cell-based
assay.conditions: 12 h, 10 µM, compound concentration 10 uM, replicate number 1
Numbered stars: 1 amine (or outer) side, 2 acyl side, 3 side chain; on linkers, the order of the positions; unused ones are H or OH. Bridge positions count the residues as written; N and C are the ends. Square brackets hold non-standard residues; d marks the D form. Peptide text beside a SMILES is read from it. I, II: the chains in the order shown. Hexamethylenediamine = C(CCCN[*:2])CCN[*:1]; Dip = N[C@H](C(=O)O)C(c1ccccc1)c1ccccc1; Chg = N[C@H](C(=O)O)C1CCCCC1; NMeA = CN[C@@H](C)C(=O)O
Everything with Growth Rate lower than -0.5 is 0 (no); everything else, including exactly -0.5, is 1 (yes).

Q: Is reported Growth Rate greater than or equal to -0.5 here: C=CC(=O)N1CCC[C@@H](n2nc(C(=O)Nc3ccc(CC(=O)N(C)C)c(C)c3C)c3c(N)ncnc32)C1
Ans: 0 (no)

Q: # repeat for COc1ccc(CCCN2CCC(COC(c3ccccc3)c3ccccc3)CC2)cc1.Cl
Ans: 0 (no)

Q: # repeat for CC[C@@H](Nc1c(C#N)c(-c2ccc(-c3cccc(C)c3F)cc2)nc2cnccc12)C(=O)O [BAY-091]
Ans: 1 (yes)

Q: # repeat for COc1ncc(-c2cc(-c3ncc(CN4C[C@@H](C)O[C@@H](C)C4)o3)c3cn[nH]c3c2)cc1NS(C)(=O)=O
Ans: 1 (yes)

Q: # repeat for CC(=O)Nc1ncc(CN2CCC[C@H](Cc3cc(C)nc(C)c3)C2)s1 [JNJ-65355394]
Ans: 1 (yes)

Q: # repeat for CC(C)(O)c1cn(-c2ccc(-c3cccc(S(C)(=O)=O)c3)cc2)c(C(C)(C)c2ccccc2Cl)n1 [BMS-779788]
Ans: 1 (yes)

Q: # repeat for CCCCCCCCCCCCCC(=O)O[C@@H]1[C@@H](C)[C@@]2(O)[C@@H](C=C(CO)C[C@]3(O)C(=O)C(C)=C[C@@H]23)[C@@H]2C(C)(C)[C@]12OC(C)=O [PHORBOL MYRISTATE ACETATE]
Ans: 0 (no)

Q: # repeat for CCOC(=O)c1cnn(-c2ccc(NC(=O)C(Cl)=C(Cl)Cl)cc2)c1C(F)(F)F
Ans: 0 (no)

Q: # repeat for CN[C@@H](C)C(=O)N[C@H](C(=O)N1CCC[C@H]1C(=O)N[C@H](C(=O)NCCCCCCNC(=O)[C@@H](NC(=O)[C@@H]1CCCN1C(=O)[C@@H](NC(=O)[C@H](C)NC)C1CCCCC1)C(c1ccccc1)c1ccccc1)C(c1ccccc1)c1ccccc1)C1CCCCC1 (I: H-[NMeA][Chg]P[Dip] / II: H-[NMeA][Chg]P[Dip]; linker I:C-II:C via Hexamethylenediamine)
Ans: 1 (yes)

Q: # repeat for O=C1NCCSc2c1sc1ccc(O)cc21
Ans: 0 (no)

Q: # repeat for CO[C@H]1C[C@@H]2CC[C@@H](C)[C@@](O)(O2)C(=O)C(=O)N2CCCC[C@H]2C(=O)O[C@H]([C@H](C)C[C@@H]2CC[C@@H](O)[C@H](OC)C2)CC(=O)[C@H](C)/C=C(\C)[C@@H](O)[C@@H](OC)C(=O)[C@H](C)C[C@H](C)/C=C/C=C/C=C/1C [SIROLIMUS]
Ans: 1 (yes)

Q: # repeat for C#Cc1cnc2[nH]cc(-c3cccc4c3CCN4C(=O)[C@@H]3CCCN3C#N)c2c1
Ans: 0 (no)

Q: # repeat for CC[C@@H](C(=O)OC)n1c(=O)c2ccccc2n(Cc2cn(C)c3cccc(C)c23)c1=O
Ans: 1 (yes)

Q: # repeat for COc1ccc(CCN(C)CCCC(C#N)(c2cc(OC)c(OC)c(OC)c2)C(C)C)cc1OC.Cl (stereo not given) [GALLOPAMIL HYDROCHLORIDE]
Ans: 1 (yes)

Q: # repeat for COCCNC1CCC(Nc2cc(-c3csc(NCC4(C#N)CCOCC4)n3)c(Cl)cn2)CC1 (stereo not given)
Ans: 1 (yes)

Q: # repeat for CC(C)S(=O)(=O)c1ccccc1Nc1nc(N[C@@H]2CCCN(CCCCCCCNC(=O)COc3cccc4c3C(=O)N(C3CCC(=O)NC3=O)C4=O)C2)ncc1Cl (stereo not given in full)
Ans: 1 (yes)

Q: # repeat for CN1CCC(F)(Cn2cnc(-c3ccc(F)cn3)c2-c2ccnc3[nH]ccc23)CC1
Ans: 1 (yes)

Q: # repeat for CC(C)(C[C@H]1CN(S(=O)(=O)c2cccc(C(F)(F)F)c2)c2cc(-c3cc(F)cc(OC(F)F)c3)ccc2O1)C(=O)O [CINTIRORGON]
Ans: 1 (yes)

Q: # repeat for Cc1ncc(C(=O)Nc2cc(C(C)(C)C)on2)cc1-n1cc(-c2cnn(C)c2C)nn1.Cl
Ans: 1 (yes)

Q: # repeat for CN1C2CCCC1CC(Nc1ccccc1Br)C2 (stereo not given)
Ans: 1 (yes)

Q: # repeat for COP(=O)(CCC(N)C(=O)O)Oc1cccc(CC(=O)O)c1 (stereo not given)
Ans: 1 (yes)

Q: # repeat for CC1(C)Cc2nc(C3CCCC3)c([C@@H](F)c3ccc(C(F)(F)F)cc3)c(C3CCCCC3)c2[C@@H](O)C1
Ans: 1 (yes)

Q: # repeat for N#Cc1cccc(-c2nc(-c3cccnc3)no2)c1
Ans: 0 (no)

Q: # repeat for COCCc1ccc(-c2c(C)nc3c(N4CCOCC4)ccnn23)cn1 [JNJ-42396302]
Ans: 1 (yes)

Q: # repeat for CN1CCCN(C(=O)c2cccc(-c3ccc(/C=C4/C(=O)Nc5ccc(Cl)cc54)o3)c2)CC1
Ans: 0 (no)

Q: # repeat for C=C1/C(=C\C=C2/CCC[C@]3(C)[C@@H]([C@H](C)CCCC(C)(C)O)CC[C@@H]23)C[C@@H](O)C[C@@H]1O [CALCITRIOL]
Ans: 1 (yes)

Q: # repeat for O=C(O)C(F)(F)F.O=C1NC(=O)/C(=C/c2c[nH]c(=O)c(-c3ccc(N4CCNCC4)nc3)c2)S1
Ans: 0 (no)

Q: # repeat for C[C@H](CCC(=O)O)[C@H]1CC[C@H]2[C@@H]3[C@H](O)C[C@@H]4C[C@H](O)CC[C@]4(C)[C@H]3C[C@H](O)[C@]12C [CHOLIC ACID]
Ans: 1 (yes)

Q: # repeat for CNC(=O)c1c[nH]c2ccc(Nc3nccc(-c4ccccn4)n3)cc12
Ans: 1 (yes)
